Hi there, I'd appreciate the recorded FACS Cell Binding (Fold Above Background) for every entry that follows.
Target: T1, human PRLR on cells (endogenous on T47D, T47D#11, MCF7); introduced in HEK293/hPRLR/STAT5-Luc, 293/hPRLR, … (human, UniProt P16471 25-622)
T1 construct: no tag is stated for these lines; also called prolactin receptor
T1 sequence: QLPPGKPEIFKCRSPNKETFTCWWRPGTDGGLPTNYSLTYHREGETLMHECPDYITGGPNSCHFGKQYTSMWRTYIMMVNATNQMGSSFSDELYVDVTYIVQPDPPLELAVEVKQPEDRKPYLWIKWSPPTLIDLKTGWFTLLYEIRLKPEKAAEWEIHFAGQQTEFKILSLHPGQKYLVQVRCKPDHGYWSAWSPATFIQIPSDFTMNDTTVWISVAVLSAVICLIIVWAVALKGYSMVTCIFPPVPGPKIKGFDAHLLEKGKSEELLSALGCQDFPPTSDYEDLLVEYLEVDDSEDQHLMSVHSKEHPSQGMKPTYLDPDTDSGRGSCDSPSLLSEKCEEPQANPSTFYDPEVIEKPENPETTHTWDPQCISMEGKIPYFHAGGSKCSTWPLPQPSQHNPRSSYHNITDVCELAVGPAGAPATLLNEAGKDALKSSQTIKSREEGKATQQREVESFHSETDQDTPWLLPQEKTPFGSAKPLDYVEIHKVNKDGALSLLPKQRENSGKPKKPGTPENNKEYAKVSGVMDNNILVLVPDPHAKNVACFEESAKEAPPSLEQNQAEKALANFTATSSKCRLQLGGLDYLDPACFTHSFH
Assay: FACS on T47D cells
API: value field is a number in fold; no unit string.

Q: Item under review: H1H6790P (antibody, human IgG1, V domains shown, human IgG1 Fc (H1H)) VH: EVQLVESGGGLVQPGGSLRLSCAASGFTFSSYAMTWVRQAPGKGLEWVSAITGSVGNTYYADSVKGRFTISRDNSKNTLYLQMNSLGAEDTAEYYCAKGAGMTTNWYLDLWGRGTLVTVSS VL: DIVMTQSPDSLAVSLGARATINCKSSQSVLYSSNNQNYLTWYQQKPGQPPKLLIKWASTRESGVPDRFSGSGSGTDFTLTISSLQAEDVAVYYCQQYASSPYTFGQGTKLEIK . Reported FACS Cell Binding (Fold Above Background)?
Ans: 34

Q: Item under review: H1H6953N (antibody, human IgG1, V domains shown, also called H1M6953N) VH: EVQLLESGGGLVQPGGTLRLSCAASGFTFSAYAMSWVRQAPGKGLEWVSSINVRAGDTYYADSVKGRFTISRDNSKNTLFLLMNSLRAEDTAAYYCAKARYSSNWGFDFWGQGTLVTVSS VL: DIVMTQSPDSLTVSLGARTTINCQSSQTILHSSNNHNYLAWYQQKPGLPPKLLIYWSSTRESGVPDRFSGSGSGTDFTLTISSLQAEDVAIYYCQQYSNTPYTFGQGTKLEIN . Reported FACS Cell Binding (Fold Above Background)?
Ans: 40

Q: Item under review: H1H6975N (antibody, human IgG1, V domains shown, also called H2M6975N) VH: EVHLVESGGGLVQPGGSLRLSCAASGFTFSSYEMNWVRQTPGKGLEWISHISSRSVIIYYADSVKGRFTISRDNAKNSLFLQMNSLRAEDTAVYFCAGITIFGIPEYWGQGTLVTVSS VL: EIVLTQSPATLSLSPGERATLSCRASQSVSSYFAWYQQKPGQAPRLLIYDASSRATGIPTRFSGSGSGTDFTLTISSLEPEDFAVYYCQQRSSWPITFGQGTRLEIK . Reported FACS Cell Binding (Fold Above Background)?
Ans: 46

Q: Item under review: H1H6762P (antibody, human IgG1, V domains shown, human IgG1 Fc (H1H)) VH: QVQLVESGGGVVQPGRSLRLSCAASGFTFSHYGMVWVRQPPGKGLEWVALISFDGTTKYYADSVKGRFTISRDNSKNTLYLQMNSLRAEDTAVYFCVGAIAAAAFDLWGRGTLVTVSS VL: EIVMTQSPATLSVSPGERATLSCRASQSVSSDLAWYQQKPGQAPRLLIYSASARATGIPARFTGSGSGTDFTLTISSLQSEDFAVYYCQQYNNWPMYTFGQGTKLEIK . Reported FACS Cell Binding (Fold Above Background)?
Ans: 38

Q: Item under review: H1H6785P (antibody, human IgG1, V domains shown, human IgG1 Fc (H1H)) VH: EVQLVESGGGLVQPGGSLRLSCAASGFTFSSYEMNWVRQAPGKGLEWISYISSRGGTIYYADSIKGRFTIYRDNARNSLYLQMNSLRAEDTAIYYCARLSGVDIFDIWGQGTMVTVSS VL: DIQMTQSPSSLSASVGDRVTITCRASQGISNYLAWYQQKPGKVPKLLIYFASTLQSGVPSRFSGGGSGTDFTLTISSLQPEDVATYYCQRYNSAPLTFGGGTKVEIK . Reported FACS Cell Binding (Fold Above Background)?
Ans: 40
